Cited source: ChEMBL document CHEMBL6092138

Exercise: for every item that follows, state its recorded pIC50.
Assayed target: Replicase polyprotein 1ab (Severe acute respiratory syndrome coronavirus 2, UniProt P0DTD1)
Please report pIC50 as the negative decimal logarithm of the molar concentration, giving only the number.

Which value of pIC50 has been reported for "CC(=O)/C(C)=C\[C@H](C[C@@H]1CCNC1=O)NC(=O)[C@@H]1[C@@H]2[C@H](CN1C(=O)[C@@H](NC(=O)C(F)(F)F)C(C)(C)C)C2(C)C" in the records?
7.30

Which value of pIC50 has been reported for "COC(=O)/C=C/[C@H](C[C@@H]1CCNC1=O)NC(=O)[C@@H]1[C@@H]2[C@H](CN1C(=O)[C@@H](NC(=O)C(F)(F)F)C(C)(C)C)C2(C)C" in the records?
7.54

Which value of pIC50 has been reported for "CN(C)CCOc1c(Cl)cc([C@H](NC(=O)C(F)(F)F)C(=O)N2C[C@H]3[C@@H]([C@H]2C(=O)N[C@H](C#N)C[C@@H]2CCNC2=O)C3(C)C)cc1Cl" in the records?
6.20

Which value of pIC50 has been reported for "CC(C)(C)[C@H](NC(=O)C(F)(F)F)C(=O)N1C[C@H]2[C@@H]([C@H]1C(=O)N[C@H](/C=C/C(N)=O)C[C@@H]1CCNC1=O)C2(C)C" in the records?
7.63

Which value of pIC50 has been reported for "CC(C)C(=O)N[C@H](C(=O)N1C[C@H]2[C@@H]([C@H]1C(=O)N[C@H](C#N)C[C@@H]1CCNC1=O)C2(C)C)c1cc(Cl)c(OCCN(C)C)c(Cl)c1" in the records?
6.69

Which value of pIC50 has been reported for CN(C)CCOc1c(Cl)cc(C(NC(=O)C(C)(C)F)C(=O)N2C[C@H]3[C@@H]([C@H]2C(=O)N[C@H](C#N)C[C@@H]2CCNC2=O)C3(C)C)cc1Cl (some centres not stated) in the records?
6.60

Which value of pIC50 has been reported for "CN(C)CCOc1c(Cl)cc([C@H](NC(=O)C(F)F)C(=O)N2C[C@H]3[C@@H]([C@H]2C(=O)N[C@H](C#N)C[C@@H]2CCNC2=O)C3(C)C)cc1Cl" in the records?
6.42

====

Exercise: for every item that follows, state its recorded pEC50.
Tested on: Human coronavirus OC43
Assay comment: Antiviral activity against HCoV OC43 infected in human Huh-7 cells assessed as inhibition of viral replication of CPE assay
Assay type: functional, organism-based
Condition details: Betacoronavirus 1, Huh-7
Please report pEC50 as the negative decimal logarithm of the molar concentration, giving only the number.

Which value of pEC50 has been reported for "CC(C)(C)[C@H](NC(=O)C(F)(F)F)C(=O)N1C[C@H]2[C@@H]([C@H]1C(=O)N[C@H](/C=C/C(N)=O)C[C@@H]1CCNC1=O)C2(C)C" in the records?
5.04

Which value of pEC50 has been reported for "CC(C)(C)[C@H](NC(=O)C(F)(F)F)C(=O)N1C[C@H]2[C@@H]([C@H]1C(=O)N[C@H](C#N)C[C@@H]1CCNC1=O)C2(C)C" in the records?
7.14

Which value of pEC50 has been reported for "COC(=O)/C=C/[C@H](C[C@@H]1CCNC1=O)NC(=O)[C@@H]1[C@@H]2[C@H](CN1C(=O)[C@@H](NC(=O)C(F)(F)F)C(C)(C)C)C2(C)C" in the records?
7.01
